Cited source: PubChem BioAssay AID2060503

- Test system: 817829-284-R-J1-PDC complex spheroids, viability;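 further: spheroids exposed to agents for 7 days before readout; percent viability relative to DMSO vehicle control taken as 100%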
- protocol_details: Anticancer human tumor 817829-284-R-J1-PDC patient-derived colon adenocarcinoma cell line growth inhibition [GQUAD]
- reported_conditions: second compound 0.0316 µM; first compound 3.16 µM; stronger effect = lower value
observed_property: viability, T/C (%)
Number in %, nothing else.

Here's what some known entries look like.
COc1cccc2c1C(=O)c1c(O)c3c(c(O)c1C2=O)CC(O)(C(=O)CO)CC3OC1CC(N)C(O)C(C)O1 (stereo not drawn) + CN(C)c1ccc(Nc2c3ccc(NC(=O)CCN4CCCC4)cc3nc3cc(NC(=O)CCN4CCCC4)ccc23)cc1 :: 0.59
COc1ncnc(C2CC2)c1-c1ncc2cnn(Cc3ccc(-c4nc(C(F)(F)F)cn4C(C)C)cc3)c2n1 + CN(C)c1ccc(Nc2c3ccc(NC(=O)CCN4CCCC4)cc3nc3cc(NC(=O)CCN4CCCC4)ccc23)cc1 :: 108

Exercise: Enter recorded viability, T/C with 817829-284-R-J1-PDC complex spheroids, viability for C=CC(=O)N1CCN(c2nc(=O)n(-c3c(C)ccnc3C(C)C)c3nc(-c4c(O)cccc4F)c(F)cc23)C(C)C1 (stereo not drawn) + Cc1[nH]c2ccc(F)cc2c1-c1nc2c3cccnc3c3ncccc3c2[nH]1 here.
Key: 106
